Taken from the supplement of paper PMC12494721.

test system: Klebsiella aerogenes DSM 30053; test: growth (OD595) fold change vs plate DMSO controls (fold change (ratio)); higher = more growth; conditions: incubation time: 27 h, anaerobic, 37 °C
Where a name gives a salt, the structure may show the parent alone.
property.name: growth
Answers are plain numbers.

Reference set (5 entries):
[
  {
    "compound": "COc1c(N2C[C@@H]3CCCN[C@@H]3C2)c(F)cc2c(=O)c(C(=O)O)cn(C3CC3)c12 [Moxifloxacin] (20 µM)",
    "tgt": "Klebsiella aerogenes DSM 30053",
    "property.name": "growth",
    "reported.value": 0.193
  },
  {
    "compound": "O=[N+]([O-])c1ccc2c(c1)Cc1ccccc1-2 [2-Nitrofluorene] (20 µM)",
    "tgt": "Klebsiella aerogenes DSM 30053",
    "property.name": "growth",
    "reported.value": 0.973
  },
  {
    "compound": "C=C1/C(=C\\C=C2/CCC[C@]3(C)[C@@H]([C@H](C)/C=C/[C@@H](O)C4CC4)CC[C@@H]23)C[C@@H](O)C[C@@H]1O [Calcipotriene] (20 µM)",
    "tgt": "Klebsiella aerogenes DSM 30053",
    "property.name": "growth",
    "reported.value": 1.02
  },
  {
    "compound": "O=C1CCc2ccc(OCCCCN3CCN(c4cccc(Cl)c4Cl)CC3)cc2N1 [Aripiprazole] (20 µM)",
    "tgt": "Klebsiella aerogenes DSM 30053",
    "property.name": "growth",
    "reported.value": 0.979
  },
  {
    "compound": "CN1Cc2c(N)cccc2C(c2ccccc2)C1 (stereo not drawn) [Nomifensine maleate] (20 µM)",
    "tgt": "Klebsiella aerogenes DSM 30053",
    "property.name": "growth",
    "reported.value": 1.01
  }
]

# per-item lookup of growth; items listed below
1. CN(C)CCCN1c2ccccc2CCc2ccccc21 [Imipramine hydrochloride] (20 µM)
2. CC(C(=O)O)c1cccc(C(=O)c2ccccc2)c1 (stereo not drawn) [Ketoprofen] (20 µM)
3. OCCN1CCN(CCCN2c3ccccc3Sc3ccc(C(F)(F)F)cc32)CC1 [Fluphenazine dihydrochloride] (20 µM)

1: 1.08; 2: 0.993; 3: 1.05
